# assay.method.text: in vivo
# applied.conditions: mouse, po
experimental.endpoint: LD50

So what's the measured LD50 for this one? CCCC(C)(C)NC(=NC#N)Nc1cccnc1 [P 1067]
> 1000 mg/kg

---

# Test system: conscious spontaneously hypertensive rats
# assay.method.text: Antihypertensive activity in conscious spontaneously hypertensive rats
# Format: in vivo, rat (spontaneously hypertensive Okamoto strain)
# applied.conditions: 0.5 mg/kg; 2 hours
# Procedure: Male albino rats, spontaneously hypertensive Okamoto strain, fasting 16 hours before the experiments were used. The conscious animals were restrained in a plastic cage and a cuff was secured around the tail. The cuff was connected with an electronic blood pressure recorder. The systolic blood pressure and the heart rate were measured before and 2, 4, 6, and 24 hours after the administration of compounds. The compounds were suspended or dissolved in carboxymethylcellulose 0.5%. […]
experimental.endpoint: HR (beats/minute)
Express it in beats/minute; write the number only.

Examples with answers:
Recall the recorded HR for CCC(C)(CC)NC(=NC#N)Nc1cccnc1 [P 1066] with conscious spontaneously hypertensive rats and state it.
437

Recall the recorded HR for N=c1nc(N2CCCCC2)cc(N)n1O [Minoxidil, reference compound] with conscious spontaneously hypertensive rats and state it.
409

Recall the recorded HR for CCC(CC)(CC)NC(=NC#N)Nc1cccnc1 [P 1068] with conscious spontaneously hypertensive rats and state it.
473

Please find the next compound below.
Recall the recorded HR for CCCC(C)(C)NC(=NC#N)Nc1cccnc1 [P 1067] with conscious spontaneously hypertensive rats and state it.
440
